Field: MIC Streptococcus agalactiae (GC 4564). Provide a value for each of the compounds that follow.
# Test system: Streptococcus sp.
# PROCEDURE DETAILS: In vitro antibacterial evaluation: minimum inhibitory concentration (MIC), broth dilution method
# Assay type: cell-based
# CONDITION DESCRIPTION: broth dilution, 5×10^5 CFU/mL, 18 hours at 35° C.
# Description: […]
Only the number, expressed in µg/mL, is required.

INPUT: For CC(c1ccccc1)C1NC(=O)CNC(=O)C(CO)NC(=O)C(C(O)C2CNC(=N)N2C2OC(CO)C(O)C(O)C2O)NC(=O)C(C(O)C2CNC(=N)N2)NC(=O)C(Cc2ccc(OC3OC(CO)C(OC4OC5COC(c6cccs6)OC5C(O)C4O)C(O)C3O)cc2)NC1=O (stereo not shown) , write its MIC Streptococcus agalactiae (GC 4564).
OUTPUT: 0.5

INPUT: For CC(c1ccccc1)C1NC(=O)CNC(=O)C(CO)NC(=O)C(C(O)C2CNC(=N)N2C2OC(CO)C(O)C(O)C2O)NC(=O)C(C(O)C2CNC(=N)N2)NC(=O)C(Cc2ccc(OC3OC(CO)C(OC4OC5COC(CC6CCCCC6)OC5C(O)C4O)C(O)C3O)cc2)NC1=O (stereo not shown) , write its MIC Streptococcus agalactiae (GC 4564).
OUTPUT: 0.12

* * *

Field: MIC Enterococcus faecium (GC 4556). Provide a value for each of the compounds that follow.
# System: Enterococcus sp.
# PROCEDURE DETAILS: In vitro antibacterial evaluation: minimum inhibitory concentration (MIC), broth dilution method
# Type: cell-based
# CONDITION DESCRIPTION: broth dilution, 18 hours at 35° C.
Only the number, expressed in µg/mL, is required.

INPUT: For CC(c1ccccc1)C1NC(=O)CNC(=O)C(CO)NC(=O)C(C(O)C2CNC(=N)N2C2OC(CO)C(O)C(O)C2O)NC(=O)C(C(O)C2CNC(=N)N2)NC(=O)C(Cc2ccc3oc(-c4cccc([N+](=O)[O-])c4)nc3c2)NC1=O (stereo not drawn) [Example 26] , write its MIC Enterococcus faecium (GC 4556).
OUTPUT: 64

INPUT: For CC(c1ccccc1)C1NC(=O)CNC(=O)C(CO)NC(=O)C(C(O)C2CNC(=N)N2C2OC(CO)C(O)C(O)C2O)NC(=O)C(C(O)C2CNC(=N)N2)NC(=O)C(Cc2ccc3oc(-c4ccc(C(C)(C)C)cc4)nc3c2)NC1=O (stereo not drawn) [Example 32] , write its MIC Enterococcus faecium (GC 4556).
OUTPUT: 8

* * *

Field: MIC Coagulase Negative Staphylococcus (GC 4547). Provide a value for each of the compounds that follow.
# Test system: Staphylococcus sp.
# PROCEDURE DETAILS: In vitro antibacterial evaluation: minimum inhibitory concentration (MIC), broth dilution method
# Assay type: cell-based
# CONDITION DESCRIPTION: strain GC 4547
Only the number, expressed in µg/mL, is required.

INPUT: For Cc1ccc(Oc2cccc(C3OCC4OC(OC5C(CO)OC(Oc6ccc(CC7NC(=O)C(C(C)c8ccccc8)NC(=O)CNC(=O)C(CO)NC(=O)C(C(O)C8CNC(=N)N8C8OC(CO)C(O)C(O)C8O)NC(=O)C(C(O)C8CNC(=N)N8)NC7=O)cc6I)C(O)C5O)C(O)C(O)C4O3)c2)cc1 (stereo not shown) , write its MIC Coagulase Negative Staphylococcus (GC 4547).
OUTPUT: 32

INPUT: For CC(c1ccccc1)C1NC(=O)CNC(=O)C(CO)NC(=O)C(C(O)C2CNC(=N)N2C2OC(CO)C(O)C(O)C2O)NC(=O)C(C(O)C2CNC(=N)N2)NC(=O)C(Cc2ccc(OC3OC(CO)C(OC4OC(COC(=O)Cc5ccccc5)C(O)C(O)C4O)C(O)C3O)cc2)NC1=O (stereo not shown) [Example 98c] , write its MIC Coagulase Negative Staphylococcus (GC 4547).
OUTPUT: 1

INPUT: For CCCCN1CC(C(O)C2NC(=O)C(C(O)C3CNC(=N)N3)NC(=O)C(Cc3ccc(OC4OC(CO)C(OC5OC6COC7(OC6C(O)C5O)C5CC6CC(C5)CC7C6)C(O)C4O)cc3)NC(=O)C(C(C)c3ccccc3)NC(=O)CNC(=O)C(CO)NC2=O)N(C2OC(CO)C(O)C(O)C2O)C1=N (stereo not shown) , write its MIC Coagulase Negative Staphylococcus (GC 4547).
OUTPUT: 2

INPUT: For COc1ccc(Oc2cccc(C3OCC4OC(OC5C(CO)OC(Oc6ccc(CC7NC(=O)C(C(C)c8ccccc8)NC(=O)CNC(=O)C(CO)NC(=O)C(C(O)C8CNC(=N)N8C8OC(CO)C(O)C(O)C8O)NC(=O)C(C(O)C8CNC(=N)N8)NC7=O)cc6)C(O)C5O)C(O)C(O)C4O3)c2)cc1 (stereo not shown) , write its MIC Coagulase Negative Staphylococcus (GC 4547).
OUTPUT: 2
